assay: GHS categories as the set defines them, by LD50: 1 up to 5, 2 up to 50, 3 up to 300, 4 up to 2000, 5 above 2000 mg/kg; settings: rat; in vivo; po
The entries below come with measured GHS category values attached.
Number only, no unit.

OC[C@H]1CO[C@@](Cn2cncn2)(c2cc3ccccc3o2)O1 : 4
CCCC1O[C@@H]2C[C@H]3[C@@H]4CCC5=CC(=O)C=C[C@]5(C)[C@H]4[C@@H](O)C[C@]3(C)[C@]2(C(=O)CO)O1 (stereo not given in full) : 5
CCOc1ccc(NC(=O)OC(C)C)cc1OCC : 5
Cc1ccc(SCOC(Cn2ccnc2)c2ccc(Cl)cc2Cl)cc1 (stereo not given) : 5
CCOC(=O)c1cc(=O)c2c(OCC(O)COc3cccc4oc(C(=O)OCC)cc(=O)c34)cccc2o1 : 5

Record request: GHS category value, item CC(C)CC(=O)OC1CC(C)CCC1C(C)C (stereo not given)
5

// same read-out, input: CC(C)=C1CC[C@H](C)C2=C(C1)[C@@H](C)CC2
5

Okay, and Oc1cc(O)ncn1 ?
5

Lookup CC=CC=CCOC(=O)CCC
5

Try the compound CC1COc2ccccc2N1C(=O)C(Cl)Cl (stereo not given)
5

O=C1c2ccc3c4ccc5c6c(ccc(c7ccc(c2c37)C(=O)N1CCc1ccccc1)c64)C(=O)N(CCc1ccccc1)C5=O ?
5

Here is the next compound: C[Si](C)(C)[Si](C)(C)C
5

# iterate: CCCCCCCCCCCCCCCC(=O)O
5

Thanks! And CCCCCCCCCCCCCCCCN(C)C ?
5

Next: O=C(O)c1cc(Br)nn1-c1ncccc1Cl
5

Please give the result for C=C(C)C(=O)OCCC(F)(F)C(F)(F)C(F)(F)C(F)(F)C(F)(F)C(F)(F)F too.
5

Now try CC(C)CCC[C@@H](C)[C@H]1CC[C@H]2[C@@H]3CC=C4C[C@@H](O)CC[C@]4(C)[C@H]3CC[C@]12C .
5

Please do the same for CCN(C(=O)CCCCSc1nnnn1C)C1CCCCC1 as well.
4

// same read-out, input: CCCCCCCCCCCCCCCCCC
5

Let us now turn to COCC(=O)N(c1c(C)cccc1C)[C@H](C)C(=O)OC
4

Try this compound next: CCn1cc(C(=O)O)c(=O)c2cc(F)c(N3CCNCC3)cc21
5

Another compound: CC1Oc2cc(C(=O)C=Cc3ccc(Cl)cc3)ccc2N(C)C1=O (stereo not given)
5

---

test: GHS categories as the set defines them, by LD50: 1 up to 5, 2 up to 50, 3 up to 300, 4 up to 2000, 5 above 2000 mg/kg; details: rat; in vivo; po
GHS category values by entry

CC(C)C[C@H]1C(=O)N2CCC[C@H]2[C@]2(O)O[C@](NC(=O)[C@@H]3C=C4c5cccc6[nH]c(Br)c(c56)C[C@H]4N(C)C3)(C(C)C)C(=O)N12 : 5
C/C=C(\C)C(=O)OCC : 5
O=C1NC(=O)C(c2ccccc2)(c2ccc(O)cc2)N1 (stereo unspecified) : 5
CCCCCCCCCCCCCCCC(=O)OCCCCCCCCCCCCCCCC(C)C : 5
COCC1COC(Cn2cncn2)(c2cc3ccccc3o2)O1 (stereo unspecified) : 4

Param item = CC(=O)N1c2ccccc2SC1c1cc([N+](=O)[O-])ccc1OCCCN(C)C1CCCCC1 (stereo unspecified) ; retrieve measured GHS category.
5

And what about the compound CC12CCC(=O)NC1=CCC1C2CCC2(C)C(C(=O)O)CCC12 (stereo unspecified) ?
5

Source listed as the CATMoS acute toxicity set (Mansouri et al. 2021).
